# System: 817829-284-R-J1-PDC complex spheroid viability;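 also: spheroids exposed to compounds for 7 days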
# assayNotes: Anticancer human tumor 817829-284-R-J1-PDC patient-derived colon adenocarcinoma cell line growth inhibition [POLQ]
# protocolConditions: curve of first compound; second compound 0.0316 µM
measureName: IC50 (µM)
Answer in µM, number only, no unit symbol.

Solved entries:
O=C(Nc1ccc(O)c(NS(=O)(=O)c2ccc(F)cc2)c1)c1ccc(-c2ccccc2)cc1 + Nc1ccc(C#CCN(C(=O)Cc2ncc(C(F)(F)F)cc2C(F)(F)F)c2ccc(F)cc2)nn1 ... 6.53
C=CCn1c(=O)c2cnc(Nc3ccc(N4CCN(C)CC4)cc3)nc2n1-c1cccc(C(C)(C)O)n1 + Nc1ccc(C#CCN(C(=O)Cc2ncc(C(F)(F)F)cc2C(F)(F)F)c2ccc(F)cc2)nn1 ... 0.258

In one line, give reported IC50 of the entry CCc1cc2c(N3CCc4c(cc(Cn5ccnc5)cc4-c4cn(C)nc4C(F)(F)F)C3=O)cc(C)nc2c(OC)n1 + COC1C(OC(N)=O)C(O)C(Oc2ccc3c(O)c(NC(=O)c4ccc(O)c(CC=C(C)C)c4)c(=O)oc3c2C)OC1(C)C .
3.1
